Target: GST-Nv-NF-kB (Cys allele) (Nematostella vectensis, UniProt E5G601 2-411)
Sequence: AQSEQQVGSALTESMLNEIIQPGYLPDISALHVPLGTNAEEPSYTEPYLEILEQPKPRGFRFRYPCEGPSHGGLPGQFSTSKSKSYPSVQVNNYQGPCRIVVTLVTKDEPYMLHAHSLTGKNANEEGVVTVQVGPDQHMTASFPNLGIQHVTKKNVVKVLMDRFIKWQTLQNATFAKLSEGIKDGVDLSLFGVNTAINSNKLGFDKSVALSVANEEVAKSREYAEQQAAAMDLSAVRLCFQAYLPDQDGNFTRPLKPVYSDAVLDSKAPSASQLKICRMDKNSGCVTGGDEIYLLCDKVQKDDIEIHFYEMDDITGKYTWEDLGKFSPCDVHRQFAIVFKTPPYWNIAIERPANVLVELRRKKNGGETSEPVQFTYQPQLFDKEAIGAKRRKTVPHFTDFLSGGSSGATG
Assay: protein-binding microarray (PBM); PBM: ~300 nM protein, 6 mM HEPES pH 7.8, 80 mM KCl, 0.5 mM EDTA, 0.5 mM EGTA, 6% glycerol, 35 ng/ul poly-dIdC, 1% milk, 1 h, room temperature; high values mean tight binding
Details: dsDNA, one strand shown
// classify(record): look up binding signal in ranges small value = under 5 z-score, mid value = from 5 z-score up to 6 z-score, large value = 6 z-score and over

Q. Exercise: read the entry CCGATTAACATCAAAACATTCCCTGATGTTAATCGGGTCTTGATTCGCTTGACGCTGCTG and state which class it falls under.
A. mid value

Q. Category of CCGATTAACATCAATATTTTCCCTGATGTTAATCGGGTCTTGATTCGCTTGACGCTGCTG :
A. large value

Q. Where would CCGATTAACATCAGCTATTTCCCTGATGTTAATCGGGTCTTGATTCGCTTGACGCTGCTG land among the classes by reported binding signal?
A. small value

Q. The entry to classify is CCGATTAACATCAAATGTCCCCCTGATGTTAATCGGGTCTTGATTCGCTTGACGCTGCTG ; which class holds it?
A. mid value

Q. Record CCGATTAACATCAGGGAATCCCCTGATGTTAATCGGGTCTTGATTCGCTTGACGCTGCTG — which class?
A. large value

Q. Just checking, what class would you give CCGATTAACATCAGGGGAGGGAATGATGTTAATCGGGTCTTGATTCGCTTGACGCTGCTG here?
A. mid value

Q. GET /class?item= CCGATTAACATCAGGGGTAACCCTGATGTTAATCGGGTCTTGATTCGCTTGACGCTGCTG
A. small value

Q. Would you mind sorting CCGATTAACATCAAGATTTTCCCTGATGTTAATCGGGTCTTGATTCGCTTGACGCTGCTG into the appropriate category?
A. large value

Q. Tag the class for CCGATTAACATCAGGGGGTGTTATGATGTTAATCGGGTCTTGATTCGCTTGACGCTGCTG
A. small value

Q. Field: class (binding signal) — entry: CCGATTAACATCAGGGGAAGCACTGATGTTAATCGGGTCTTGATTCGCTTGACGCTGCTG
A. large value

----------
Biological target: GST-Ap-NF-kB RHD (Exaiptasia pallida (Aiptasia), UniProt A0A913YAJ5 2-422)
Sequence: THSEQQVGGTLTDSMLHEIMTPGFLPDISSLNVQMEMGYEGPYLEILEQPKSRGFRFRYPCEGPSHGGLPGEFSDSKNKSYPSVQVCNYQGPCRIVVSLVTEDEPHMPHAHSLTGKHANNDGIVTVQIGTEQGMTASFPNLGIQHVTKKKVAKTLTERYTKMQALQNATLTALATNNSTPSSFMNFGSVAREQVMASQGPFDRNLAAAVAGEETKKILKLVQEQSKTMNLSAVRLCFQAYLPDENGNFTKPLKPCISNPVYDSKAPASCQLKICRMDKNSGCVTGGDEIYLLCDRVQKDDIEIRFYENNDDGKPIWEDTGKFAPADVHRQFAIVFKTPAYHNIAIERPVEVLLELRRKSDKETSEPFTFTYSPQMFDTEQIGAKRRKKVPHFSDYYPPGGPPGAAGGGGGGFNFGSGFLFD
Test: protein-binding microarray (PBM); PBM: ~300 nM protein, 6 mM HEPES pH 7.8, 80 mM KCl, 0.5 mM EDTA, 0.5 mM EGTA, 6% glycerol, 35 ng/ul poly-dIdC, 1% milk, 1 h, room temperature; Ap Aiptasia and Nv Nematostella (sea anemones) / Co Capsaspora / Aq Amphimedon (sponge) / Dm Drosophila / Hu human; RHD is the Rel homology domain; high values mean tight binding
Conditions: dsDNA, one strand shown
Provide the recorded binding signal for the entries that follow.
Form entry: value (z-score) — number only.

Q. Which measured binding signal belongs to CCGATTAACATCAAGGTACCCCCTGATGTTAATCGGGTCTTGATTCGCTTGACGCTGCTG , tested on GST-Ap-NF-kB RHD (Exaiptasia pallida (Aiptasia), UniProt A0A913YAJ5 2-422)?
A. 5.83

Q. What is its binding signal for GST-Ap-NF-kB RHD (Exaiptasia pallida (Aiptasia), UniProt A0A913YAJ5 2-422)? Entry: CCGATTAACATCAGGGAATTAACTGATGTTAATCGGGTCTTGATTCGCTTGACGCTGCTG
A. 2.83

Q. Hello, I am looking for reported binding signal with GST-Ap-NF-kB RHD (Exaiptasia pallida (Aiptasia), UniProt A0A913YAJ5 2-422) for CCGATTAACATCACATACTCCCCTGATGTTAATCGGGTCTTGATTCGCTTGACGCTGCTG . Could you help?
A. 4.4

Q. Under GST-Ap-NF-kB RHD (Exaiptasia pallida (Aiptasia), UniProt A0A913YAJ5 2-422): binding signal value of CCGATTAACATCATCAGGGGAAATGATGTTAATCGGGTCTTGATTCGCTTGACGCTGCTG ?
A. 5.62

Q. Record CCGATTAACATCAGAAAACCCCATGATGTTAATCGGGTCTTGATTCGCTTGACGCTGCTG : what is its binding signal with GST-Ap-NF-kB RHD (Exaiptasia pallida (Aiptasia), UniProt A0A913YAJ5 2-422)?
A. 6.36

Q. Observed binding signal on GST-Ap-NF-kB RHD (Exaiptasia pallida (Aiptasia), UniProt A0A913YAJ5 2-422) for CCGATTAACATCACAAAAACCCCTGATGTTAATCGGGTCTTGATTCGCTTGACGCTGCTG , please.
A. 7.23

Q. Query for GST-Ap-NF-kB RHD (Exaiptasia pallida (Aiptasia), UniProt A0A913YAJ5 2-422): what binding signal does the record show for CCGATTAACATCAGGGGTTTTGATGATGTTAATCGGGTCTTGATTCGCTTGACGCTGCTG ?
A. 3.81

Q. API: value(readout= binding signal, system= GST-Ap-NF-kB RHD (Exaiptasia pallida (Aiptasia), UniProt A0A913YAJ5 2-422), query= CCGATTAACATCAGGCACCCCCCTGATGTTAATCGGGTCTTGATTCGCTTGACGCTGCTG )
A. 5.14

Q. Lab request: please report binding signal under test system GST-Ap-NF-kB RHD (Exaiptasia pallida (Aiptasia), UniProt A0A913YAJ5 2-422) for CCGATTAACATCACATGTTTCCCTGATGTTAATCGGGTCTTGATTCGCTTGACGCTGCTG
A. 2.33

Q. What reported binding signal corresponds to CCGATTAACATCAGGGGAAAAACTGATGTTAATCGGGTCTTGATTCGCTTGACGCTGCTG on GST-Ap-NF-kB RHD (Exaiptasia pallida (Aiptasia), UniProt A0A913YAJ5 2-422)?
A. 6.41

Q. Request - read-out binding signal | tested on GST-Ap-NF-kB RHD (Exaiptasia pallida (Aiptasia), UniProt A0A913YAJ5 2-422) | sequence CCGATTAACATCAGAAATCCCCCTGATGTTAATCGGGTCTTGATTCGCTTGACGCTGCTG
A. 11.2

Q. Recorded binding signal for CCGATTAACATCAGGGGAAGTCATGATGTTAATCGGGTCTTGATTCGCTTGACGCTGCTG with GST-Ap-NF-kB RHD (Exaiptasia pallida (Aiptasia), UniProt A0A913YAJ5 2-422), please?
A. 5.98

Q. Query the reported binding signal for GST-Ap-NF-kB RHD (Exaiptasia pallida (Aiptasia), UniProt A0A913YAJ5 2-422); item: CCGATTAACATCAATATATTCCCTGATGTTAATCGGGTCTTGATTCGCTTGACGCTGCTG
A. 4.19

Q. Notebook: pull reported binding signal for GST-Ap-NF-kB RHD (Exaiptasia pallida (Aiptasia), UniProt A0A913YAJ5 2-422), entry CCGATTAACATCAAAAATTTCCCTGATGTTAATCGGGTCTTGATTCGCTTGACGCTGCTG
A. 5.61

Q. Field: binding signal (GST-Ap-NF-kB RHD (Exaiptasia pallida (Aiptasia), UniProt A0A913YAJ5 2-422)). Entry: CCGATTAACATCAGGGGGATATATGATGTTAATCGGGTCTTGATTCGCTTGACGCTGCTG
A. 6.45

Q. Under GST-Ap-NF-kB RHD (Exaiptasia pallida (Aiptasia), UniProt A0A913YAJ5 2-422): binding signal value of CCGATTAACATCAGGACATACCCTGATGTTAATCGGGTCTTGATTCGCTTGACGCTGCTG ?
A. 1.92

Q. Fill in the recorded binding signal for this sequence, with GST-Ap-NF-kB RHD (Exaiptasia pallida (Aiptasia), UniProt A0A913YAJ5 2-422) as test system: CCGATTAACATCAAATTCCCACTTGATGTTAATCGGGTCTTGATTCGCTTGACGCTGCTG
A. 2.15

Q. For GST-Ap-NF-kB RHD (Exaiptasia pallida (Aiptasia), UniProt A0A913YAJ5 2-422), provide binding signal of CCGATTAACATCAGTAATCCCCATGATGTTAATCGGGTCTTGATTCGCTTGACGCTGCTG please.
A. 6.5

Q. So what binding signal did CCGATTAACATCAGGGAAACTACTGATGTTAATCGGGTCTTGATTCGCTTGACGCTGCTG get with GST-Ap-NF-kB RHD (Exaiptasia pallida (Aiptasia), UniProt A0A913YAJ5 2-422)?
A. 3.54

Q. Request body: readout binding signal, system GST-Ap-NF-kB RHD (Exaiptasia pallida (Aiptasia), UniProt A0A913YAJ5 2-422), query CCGATTAACATCAAAAAAACCCCTGATGTTAATCGGGTCTTGATTCGCTTGACGCTGCTG . Return the value.
A. 9.17

Q. Form entry - test system: GST-Ap-NF-kB RHD (Exaiptasia pallida (Aiptasia), UniProt A0A913YAJ5 2-422); read-out: binding signal; sequence: CCGATTAACATCAGGGGCGGGAATGATGTTAATCGGGTCTTGATTCGCTTGACGCTGCTG
A. 2.87

Q. // map CCGATTAACATCACATTCTCCCCTGATGTTAATCGGGTCTTGATTCGCTTGACGCTGCTG to recorded binding signal (system: GST-Ap-NF-kB RHD (Exaiptasia pallida (Aiptasia), UniProt A0A913YAJ5 2-422))
A. 4.7

Q. Param readout= binding signal; system= GST-Ap-NF-kB RHD (Exaiptasia pallida (Aiptasia), UniProt A0A913YAJ5 2-422); entry= CCGATTAACATCAGGGAATTTGATGATGTTAATCGGGTCTTGATTCGCTTGACGCTGCTG ; returns value.
A. 3.63

Q. Enter reported binding signal observed with GST-Ap-NF-kB RHD (Exaiptasia pallida (Aiptasia), UniProt A0A913YAJ5 2-422) for CCGATTAACATCACATGGGAAACTGATGTTAATCGGGTCTTGATTCGCTTGACGCTGCTG
A. 1.24

Q. Which binding signal is reported with GST-Ap-NF-kB RHD (Exaiptasia pallida (Aiptasia), UniProt A0A913YAJ5 2-422) for this entry: CCGATTAACATCAGGGATTTTCATGATGTTAATCGGGTCTTGATTCGCTTGACGCTGCTG ?
A. 5.23

Q. Lookup: binding signal / GST-Ap-NF-kB RHD (Exaiptasia pallida (Aiptasia), UniProt A0A913YAJ5 2-422) / CCGATTAACATCAAAAGTCCCCATGATGTTAATCGGGTCTTGATTCGCTTGACGCTGCTG
A. 7.92

Q. Request: binding signal, test system GST-Ap-NF-kB RHD (Exaiptasia pallida (Aiptasia), UniProt A0A913YAJ5 2-422), entry CCGATTAACATCAGGGGAATTAATGATGTTAATCGGGTCTTGATTCGCTTGACGCTGCTG
A. 6.97

Q. // lookup binding signal | system=GST-Ap-NF-kB RHD (Exaiptasia pallida (Aiptasia), UniProt A0A913YAJ5 2-422) | key= CCGATTAACATCACGGTATTTCCTGATGTTAATCGGGTCTTGATTCGCTTGACGCTGCTG
A. 1.56

Q. Query for GST-Ap-NF-kB RHD (Exaiptasia pallida (Aiptasia), UniProt A0A913YAJ5 2-422): what binding signal does the record show for CCGATTAACATCAGCCCGGGAAATGATGTTAATCGGGTCTTGATTCGCTTGACGCTGCTG ?
A. 2.45

Q. Can you look up binding signal on GST-Ap-NF-kB RHD (Exaiptasia pallida (Aiptasia), UniProt A0A913YAJ5 2-422) for CCGATTAACATCAGGGCATACCCTGATGTTAATCGGGTCTTGATTCGCTTGACGCTGCTG ?
A. 2.36
